# tested_system: T1, recombinant human CTLA4 protein with human IgG1 Fc tag at the C-terminus (Acro biosystems, Cat#CT4-H5255) (human, UniProt P16410 37-162)
# T1 construct: bought protein; also called human CTLA4-Fc; CTLA4-Fc; not shown: human IgG1 Fc tag at the C-terminus
# T1 sequence (looked up): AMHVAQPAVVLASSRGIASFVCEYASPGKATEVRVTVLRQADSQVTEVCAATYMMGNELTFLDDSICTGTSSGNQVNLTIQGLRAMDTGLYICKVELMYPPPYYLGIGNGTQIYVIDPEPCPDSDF
# test: capture ELISA: antibody captured on coated plate (anti-human IgG Fc for the chimeric antibodies), biotin human CTLA4-Fc, streptavidin-HRP, OD(450-630)
Assignment: determine reported EC50 for the given binders.
One number for each entry, in nM.

Before answering, review these 4 worked examples.
mouse anti-CTLA4 monoclonal antibody D1D5 (antibody, V domains shown, mouse mAb purified from hybridoma supernatant) VH: EVKLVESGGGLVKPGGSLKLSCAASGFTFSDYGMAWVRQAPGKGPEWVAFISNLAYSVYYADTETGRFTISREDAKNTLYLEMSSLRSEDTAMYYCARSGLPYAMDYWGQGTSVTVSS VL: DIQMTQTTSSLSASLGDRVTISCRASQDISNYLNWYQQKPDGTVKLLIYYISRLHSGVPSRFSGSGSGTDFSLTISNLEQEDIATYFCQQGRMLPWTFGGGTRLEIK = 0.632
mouse anti-CTLA4 monoclonal antibody C1G4 (antibody, V domains shown, mouse mAb purified from hybridoma supernatant) VH: EVKLDETGGGLVQPGRPIKLSCVASGFTFSDNWMNWVRQSPEKGLEWVAQIRNKPYNYETYYSDSVKGRFTISRDDSKSSVYLQMNNLRTKDMGIYYCTGGFTYWGQGTLVTVSA VL: DIQMTQSPPSLSASVGETVTITCGASENIYGGLNWYQRKQGKSPQLLIYGATNLADGMSSRFSGSGSGRQYSLKISRLHPDDVATYYCQNVLNTPYTFGGGTKLEIK = 0.832
mouse anti-CTLA4 monoclonal antibody D1B6 (antibody, V domains shown, mouse mAb purified from hybridoma supernatant) VH: EVQLQQSGPELVKPGASVKLSCKASGNTFTTYVLNWVKQKPGQGLEWIGYFNPYNDGIKYNEKFKGKATLTSDKSSNTAYMELSSLTSEDSAVYYCARFEGGGYAMDYWGQGTSVTVSS VL: DIVLTQSPASLAVSLGQRATISCRASQSVGTSRNTYIHWYQQKLGQPPKLLIKYASDLESGVPARFSGSGSGTDFTLNIHPVEEEDTATYYCQHSWEIPYTFGGGTKLEIK = 0.418
chimeric D1B6 anti-CTLA4 antibody (antibody, human IgG4 S228P, kappa, V domains shown, mouse variable domains on human IgG4/kappa, made in 293F cells) VH: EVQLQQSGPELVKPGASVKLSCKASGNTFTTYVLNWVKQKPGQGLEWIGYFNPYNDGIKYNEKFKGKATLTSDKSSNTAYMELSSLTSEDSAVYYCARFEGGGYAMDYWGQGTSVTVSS VL: DIVLTQSPASLAVSLGQRATISCRASQSVGTSRNTYIHWYQQKLGQPPKLLIKYASDLESGVPARFSGSGSGTDFTLNIHPVEEEDTATYYCQHSWEIPYTFGGGTKLEIKR = 0.514

Attention now shifts to the item below.
Q: Let me know recorded EC50 for chimeric D1D5 anti-CTLA4 antibody (antibody, human IgG4 S228P, kappa, V domains shown, mouse variable domains on human IgG4/kappa, made in 293F cells) VH: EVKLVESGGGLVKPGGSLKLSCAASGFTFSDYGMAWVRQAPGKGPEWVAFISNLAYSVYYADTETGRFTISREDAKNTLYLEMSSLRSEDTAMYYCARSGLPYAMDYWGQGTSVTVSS VL: DIQMTQTTSSLSASLGDRVTISCRASQDISNYLNWYQQKPDGTVKLLIYYISRLHSGVPSRFSGSGSGTDFSLTISNLEQEDIATYFCQQGRMLPWTFGGGTRLEIKR , thanks.
Result: 0.992
